Values compiled from the OligoGym collection.

Field: sensor-assay potency score (higher = more potent). Provide a value for each of the sequences that follow.
- tested_system: ZNF233
- protocol_description: pooled miR-30 sensor sort-seq; sequence = guide strand; further: reference of the scale not given here
- particulars: shRNA
Answers are plain numbers.

Quick batch: sensor-assay potency score (higher = more potent) for everything below.
1. TTAATTTACTTGTAAATTGTTC
2. TATCCTGTCACTTACTTCCCAT
3. TTTAGCAACTTGGACCTCTTGC
4. TTTGCTGACACCTACTCTGATA

[-0.905, -0.636, 0.0723, -0.77]

Okay, here is my list. What is sensor-assay potency score (higher = more potent) for each of these?
1. TTTACTTGTAAATTGTTCCCAT
2. TATTAGGTCTTGATTACTGGTT
3. TATCTCATTTTGATTCTTGTGT
4. TTAATCTTACTTCTTGAAGGGT

[0.845, -0.618, 0.251, -0.195]

----------
- tested_system: IRX2
- protocol_description: pooled miR-30 sensor sort-seq; sequence = guide strand
- particulars: shRNA
For each record, write down the corresponding sensor-assay potency score (higher = more potent).

// solved cases for sensor-assay potency score (higher = more potent) follow
• TCTTCGCTTTTGTTTCTCGGGG = -0.791
• ATCTTCGCTTTTGTTTCTCGGG = -1.09
• TGTCCTTGCACTCCGAGCCCGA = -0.973
• TTGTCGGGACTCTCGTCCTTGC = -0.88
• TAGTTTGTGTAGTTGCCGTAGA = 0.0957

API: the following record is the query input.
Reported sensor-assay potency score (higher = more potent) for TTCTTGGGCTCGTAGCCGCCGC : what is it? -1.6

----------
- tested_system: HBQ1
- protocol_description: pooled miR-30 sensor sort-seq; sequence = guide strand
- particulars: shRNA
We use -1 as the dividing line for sensor-assay potency score (higher = more potent): on or above the line is 1, below is 0.

Below, 6 sequences whose answers are already recorded.
- TAGGTCGTCCAGGCGCTCCACG: 0
- TGTCGTGTAGACGCCGACGTTG: 1
- TTGCTGCCCAGCTTCTTCCACA: 0
- TAGACGCCGACGTTGCTGCCCA: 1
- ATAACGTGGCTCAGGAACTTGT: 0
- TGGGCTCTGACTTGTGAGGAGC: 0

Pending sequence:
Determine whether measured sensor-assay potency score (higher = more potent) meets or exceeds -1 for AAGTAGGTCTTCGTGGCGGGGA 1

----------
- tested_system: CHRNA1
- protocol_description: pooled miR-30 sensor sort-seq; sequence = guide strand
- particulars: shRNA
Please respond with reported sensor-assay potency score (higher = more potent) for every item in the list.

Sample answers from the record:
- TAGCAAAGTCACCATCTGCATT: -1.03
- TTGCAACGTACTTCCACTCTGC: 0.505
- TTCATCCACATTGATGAGCTGT: -0.162
- ATTGATGAGCTGTATCAGCTGC: 0.306
- TAGGTCACGGAGTGCTTCCAGC: -1.17
- TATAACAGCAATGACAATGCAA: 0.464

Respectfully, I request sensor-assay potency score (higher = more potent) for each entry included below.
1. TAACACGTTTGATAAGTGCGAG
2. TAAGTATGGAATATAACACGTT
3. TAAGCAAAGAATACACTTCATT
4. TACTTCATCCACATTGATGAGC
5. TTGTCTTGCTTTTCTCTGGATG

[-0.52, -0.0814, -1.02, -0.906, -0.807]

Query the reported sensor-assay potency score (higher = more potent) for CHRNA1; item: TTAGAACATCAGCAACTCCCTA -0.4

----------
- tested_system: NLRP2
- protocol_description: pooled miR-30 sensor sort-seq; sequence = guide strand
- particulars: shRNA
Classify by measured sensor-assay potency score (higher = more potent): criterion met if it is equal to or exceeds -0.4, criterion not met if it is smaller.

The examples below pair each entry with its known result.
• TTTCTCAGTATCAATAATCAGT = criterion not met
• TTCAATATATACCTGCACCTAT = criterion met
• TTCGTCTTCAATATATACCTGC = criterion met

Can TTTTTCTTCTATTTCTTCCAGC be said to have sensor-assay potency score (higher = more potent) at or above -0.4? criterion met

Does the sequence TTCTGTTTTGAAGCGCTCCAGC have recorded sensor-assay potency score (higher = more potent) that is -0.4 or more? criterion not met

----------
- tested_system: SLC25A38
- protocol_description: pooled miR-30 sensor sort-seq; sequence = guide strand
- particulars: shRNA
measurement_kind: sensor-assay potency score (higher = more potent)
One number for each entry.

- TATATTTTTGGTCTGGTTGTAA: 0.16
- TTGATGACTCCTCTTTTGGAGA: -1.04
- AAGAGTACAGCCAACATCCCAA: -0.0219
- TTGAAAATAAGTGTCACTGCTT: 0.827
- TTTGATAACATCCGCAGGTTGA: -0.428

Kindly consider the entry below.
Which sensor-assay potency score (higher = more potent) reading was recorded for the sequence TAGGACTTCATCTTACTGCAGA ? -0.516

----------
Would you kindly list sensor-assay potency score (higher = more potent) for each of these sequences?
- tested_system: UBA3
- protocol_description: pooled miR-30 sensor sort-seq; sequence = guide strand
- particulars: shRNA
Give bare numbers.

Some entries whose results are on file:
• TAGATAATCCAAAACCTCCTGT = 0.333
• TTGAATAGTACAGTCTGTGGGG = 0.37
• TTGTCGATAGAAAGTGTCGTTA = -0.471
• ATCTACATCATTAAACACCAAG = -1.38

// fetch UBA3 sensor-assay potency score (higher = more potent) for TTCTTGTCCATCAACAAGCCCC -0.667

----------
- tested_system: TMEM147
- protocol_description: pooled miR-30 sensor sort-seq; sequence = guide strand
- particulars: shRNA
Outcome: label 1 for sensor-assay potency score (higher = more potent) of at least -0.8; label 0 for anything lower.

Please review the entries below; each comes with its answer.
* TTATCATCCAGACCTGAGCAGA | label 0
* TTGTAGGTGATGAAGTAGGGGA | label 1
* TTGTACTCGGACAGGCCGCTGC | label 0

Decide: is the reported value of sensor-assay potency score (higher = more potent) for TGTGGTACAGATCATAGCGTGT equal to or greater than -0.8? label 1

----------
For each entry below, report its sensor-assay potency score (higher = more potent) value.
- tested_system: GPBAR1
- protocol_description: pooled miR-30 sensor sort-seq; sequence = guide strand
- particulars: shRNA
Give bare numbers.

• CTGTGTAGCGCTGATCGCCCAG = -1.64
• TAGCGCTGATCGCCCAGCCCCA = -1.62
• ATGTGGGCAATGCCAGACCCGT = -2.11
• TGTGTAGCGCTGATCGCCCAGC = -1.16
• TGGTAGGCAATGCTGGGGCCGG = -1.84

Please state, for each entry, its recorded sensor-assay potency score (higher = more potent).
1. TGGGTGGTAGGCAATGCTGGGG
2. TGCTTTGGCTGCTTGGGTGGTA

1. -1.2
2. -0.379

----------
- tested_system: ADAM18
- protocol_description: pooled miR-30 sensor sort-seq; sequence = guide strand
- particulars: shRNA
measurement_kind: sensor-assay potency score (higher = more potent)
Answers are plain numbers.

- TATGACTGTAATTTACTGCTAA: 0.177

For every item below, please supply its sensor-assay potency score (higher = more potent).
1. TATGTGGCTGAACACAAGCTAA
2. TATTCCTTCAGAACCTTCGTGG
3. TAACAGTCAATTTGAACTGGGT
4. TTGATGTACAACATGGTCCAGA
5. TATAACAGTCAATTTGAACTGG

1. -1.54
2. 0.508
3. 0.214
4. -0.506
5. 0.382

----------
- tested_system: P2RX3
- protocol_description: pooled miR-30 sensor sort-seq; sequence = guide strand
- particulars: shRNA
Would you kindly list sensor-assay potency score (higher = more potent) for each of these sequences?
Answers are plain numbers.

• TTCACAACCACCGACTTGGTGG = -0.566
• TTCAGTAACAATCATCTTGGTG = -0.0732
• TTGTCCAAGTCGCACACCCAGC = -1.44
• TTGAGCAGGATGATGTCACAGA = 0.136
• TCAGTAACAATCATCTTGGTGA = 0.681

Give one value of sensor-assay potency score (higher = more potent) per listed sequence.
1. TTCCACTGTGTCCACCTCCGTG
2. TTGAACTTGCCAGCATTCCCGT
3. TTCACCTTGGTTACCACCGAGG

-1.06
-1.02
-0.997

----------
- tested_system: ZMAT2
- protocol_description: pooled miR-30 sensor sort-seq; sequence = guide strand
- particulars: shRNA
# binarize sensor-assay potency score (higher = more potent): threshold -0.5 inclusive, high side class 1, low side class 0

Below are worked cases with known answers.
* TTCTCTGATGTTTCTTTCCATT | class 0
* TTTCTTGTACGCTTTGGCCTTT | class 0

Given TTCTTGTTGACCTCAAAACGTT , state whether its sensor-assay potency score (higher = more potent) is at least -0.5. class 0

Could you tell me if the measured sensor-assay potency score (higher = more potent) of TTGGATTCCAAGTCCACCTTGT reaches -0.5 or more? class 1

Can TTTCTCTTTCTTGTACGCTTTG be said to have sensor-assay potency score (higher = more potent) at or above -0.5? class 0
